Test system: 186277-243-T-J2-PDC complex spheroids, viability;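 further: spheroids exposed to compounds for 7 days before viability read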
Assay: Anticancer human tumor 186277-243-T-J2-PDC patient-derived colon adenocarcinoma cell line growth inhibition [RAS]
Conditions: second compound 0.00316 µM; first compound 0.316 µM; active compounds read low
Listing: viability, T/C of selected compounds
Provide only the numeric value, understood in %.

Use the examples below as a reference point.
# compound, viability, T/C, %
rows = [
    ("NC1c2ccccc2OC12CCN(c1cnc3c(N4CCCc5ncccc54)n[nH]c3n1)CC2 (stereo not given) + C=CC(=O)N1CCN(c2nc(OCC3CCCN3C)nc3c(F)c(-c4nc(N)cc(C)c4C(F)(F)F)c(Cl)cc23)C(C)C1", 101),
    ("CC(Nc1ccc2c(c1)OCCn1cc(N3C(=O)OCC3C(F)F)nc1-2)C(N)=O (stereo not given) + C=CC(=O)N1CCN(c2nc(OCC3CCCN3C)nc3c(F)c(-c4nc(N)cc(C)c4C(F)(F)F)c(Cl)cc23)C(C)C1", 58.9),
    ("Cc1nc(N2CCC3(CC2)COC(C)C3N)c(CO)nc1Sc1ccnc(N)c1Cl (stereo not given) + C=CC(=O)N1CCN(c2nc(OCC3CCCN3C)nc3c(F)c(-c4nc(N)cc(C)c4C(F)(F)F)c(Cl)cc23)C(C)C1", 127),
]

Task: What viability, T/C value was documented for this compound, CCC(CC)c1cc(NC2CCC(N)C2)n2nccc2n1 (stereo not given) + C=CC(=O)N1CCN(c2nc(OCC3CCCN3C)nc3c(F)c(-c4nc(N)cc(C)c4C(F)(F)F)c(Cl)cc23)C(C)C1 ?
Result: 89.5

Task: Query CC(=O)OC12COC1CC(O)C1(C)C(=O)C(O)C3=C(C)C(OC(=O)C(O)C(NC(=O)OC(C)(C)C)c4ccccc4)CC(O)(C(OC(=O)c4ccccc4)C21)C3(C)C (stereo not given) + C=CC(=O)N1CCN(c2nc(OCC3CCCN3C)nc3c(F)c(-c4nc(N)cc(C)c4C(F)(F)F)c(Cl)cc23)C(C)C1 next
Result: 7.44
